measured.on: Sau-MenDIS1 Lys309Ala mutant (Staphylococcus aureus, UniProt Q2FZL7, K309A)
experimental.details: UV spectroscopy assay of isochorismate consumption, DHNA inhibition
endpoint.label: pIC50
Please note pIC50 is a logarithmic value: minus log10 of concentration in mol/L. Answer with that number alone.

What the record says about O=C(O)c1cc(O)c2ccccc2c1O [DHNA, 1,4-dihydroxy-2-naphthoic acid] : pIC50 is 5.34

----------
measured.on: Sau-MenDIS1 (Staphylococcus aureus)
experimental.details: Intrinsic fluorescence quenching upon DHNA titration
Format: binding
condition.parameters: + 100 μM ThDP, 1 µM enzyme; read-out: Kd for DHNA
endpoint.label: pKd
Please note pKd is a logarithmic value: minus log10 of concentration in mol/L. Answer with that number alone.

What the record says about O=C(O)c1cc(O)c2ccccc2c1O [DHNA, 1,4-dihydroxy-2-naphthoic acid] : pKd is 4.01

Reference source: paper PMC9835592
